tested on: A549 cells; experiment: Crystal violet cell viability / antiproliferative assay, A549; assay type: cell-based, human; settings: human NSCLC A549 cells, treatment time 72 h
Overview of recorded IC50 for various molecules
// units = µM; emit number, no label

Below, 2 molecules whose answers are already recorded.
O=C(CCn1cc(-[c-]2cccc2)nn1)[c-]1cccc1.[Fe+2].[Fe+2].c1cc[cH-]c1.c1cc[cH-]c1; 805
Cc1cn([C@H]2C[C@H](n3cc(-[c-]4cccc4)nn3)[C@@H](CO)O2)c(=O)[nH]c1=O.[Fe+2].c1cc[cH-]c1; 230

Now consider a different molecule.
What value of measured IC50 is listed for N.N.[Cl][Pt][Cl] [cisplatin, reference compound] ?
108

* * *

Overview of recorded IC50 for various compounds
tested on: A549 cells; test: Crystal violet cell viability / antiproliferative assay, A549; assay type: cell-based, human; conditions: human NSCLC A549 cells, treatment time 72 h
Could you give the number and then its unit, please?

Below, 2 compounds whose answers are already recorded.
Cc1cn([C@H]2C[C@H](n3nnc(-[c-]4cccc4)c3C#C[c-]3cccc3)[C@@H](CO)O2)c(=O)[nH]c1=O.[Fe+2].[Fe+2].c1cc[cH-]c1.c1cc[cH-]c1 [compound 1a]; 57 µM
O=c1[nH]cc(F)c(=O)[nH]1 [5-fluorouracil, reference compound]; 69 µM

Provide value of IC50 for this record tested with A549 cells: O=C(CCn1nnc(-[c-]2cccc2)c1C#C[c-]1cccc1)[c-]1cccc1.[Fe+2].[Fe+2].[Fe+2].c1cc[cH-]c1.c1cc[cH-]c1.c1cc[cH-]c1 [compound 2a]
184 µM

* * *

tested on: H1975 cells; assay: Crystal violet cell viability / antiproliferative assay, H1975; type: cell-based, human; conditions: NCI-H1975; human NSCLC H1975 cells, treatment time 72 h
Measurement label: pIC50
Just the number, please; pIC50 means minus log10 of the concentration in mol/L.

What value of measured pIC50 is listed for O=c1[nH]cc(F)c(=O)[nH]1 [5-fluorouracil, reference compound] ?
4.49

* * *

tested on: BEAS-2B cells; assay: Crystal violet cell viability / antiproliferative assay, BEAS-2B; assay type: cell-based, human; details: nonmalignant human bronchial epithelium BEAS-2B cells, treatment time 72 h
Mark met only when IC50 stays strictly below 200 µM. Values equal to the cut-off are not met.

Examples from the recorded data:
O=c1[nH]cc(F)c(=O)[nH]1 [5-fluorouracil, reference compound]; met
N.N.[Cl][Pt][Cl] [cisplatin, reference compound]; met
Cc1cn([C@H]2C[C@H](n3cc(-[c-]4cccc4)nn3)[C@@H](CO)O2)c(=O)[nH]c1=O.[Fe+2].c1cc[cH-]c1; not met
O=C(CCn1nnc(-[c-]2cccc2)c1C#C[c-]1cccc1)[c-]1cccc1.[Fe+2].[Fe+2].[Fe+2].c1cc[cH-]c1.c1cc[cH-]c1.c1cc[cH-]c1; not met

# evaluate next
Threshold test, IC50 < 200 µM: Cc1cn([C@H]2C[C@H](n3nnc(-[c-]4cccc4)c3C#C[c-]3cccc3)[C@@H](CO)O2)c(=O)[nH]c1=O.[Fe+2].[Fe+2].c1cc[cH-]c1.c1cc[cH-]c1
not met
